# Plant response rating, Giant foxtail per entry
System: giant foxtail
Assay Protocol: Test C preemergence/postemergence greenhouse plant response rating 0 to 100
Format: in vivo, Setaria faberii
Condition Summary: POSTEMERGENCE, 62 g/ha, 0 to 100 scale

[
  {
    "Molecule": "C=CCN1C(=O)COc2cc(F)c(-c3nn4c(c3Br)CCCC4)cc21 [Compound 41]",
    "Plant response rating, Giant foxtail": 30
  },
  {
    "Molecule": "COc1cc(-c2nn3c(c2Cl)CCCC3)c(F)cc1Cl [Compound 29]",
    "Plant response rating, Giant foxtail": 70
  },
  {
    "Molecule": "COCN1C(=O)COc2cc(F)c(-c3nn4c(c3Br)CCCC4)cc21 [Compound 67]",
    "Plant response rating, Giant foxtail": 40
  },
  {
    "Molecule": "COC(=O)c1cc(-c2nn3c(c2Cl)CCCC3)c(F)cc1Cl [Compound 43]",
    "Plant response rating, Giant foxtail": 50
  },
  {
    "Molecule": "CCCN1C(=O)COc2cc(F)c(-c3nn4c(c3Cl)CCCC4)cc21 [Compound 32]",
    "Plant response rating, Giant foxtail": 70
  },
  {
    "Molecule": "CC(C)N1C(=O)COc2cc(F)c(-c3nn4c(c3Cl)CCCC4)cc21 [Compound 31]",
    "Plant response rating, Giant foxtail": 40
  },
  {
    "Molecule": "C#CCN1C(=O)COc2cc(F)c(-c3nn4c(c3Cl)CCCC4)cc21 [Compound 34]",
    "Plant response rating, Giant foxtail": 70
  },
  {
    "Molecule": "C#CCN1C(=O)COc2cc(F)c(-c3nn4c(c3Br)CCCC4)cc21 [Compound 56]",
    "Plant response rating, Giant foxtail": 40
  },
  {
    "Molecule": "C#CC(C)N1C(=O)COc2cc(F)c(-c3nn4c(c3Cl)CCCC4)cc21 (stereo not drawn) [Compound 50]",
    "Plant response rating, Giant foxtail": 50
  }
]

---

Test system: giant foxtail
Assay Protocol: Test B preemergence/postemergence greenhouse plant response rating 0 to 10
Type: in vivo, Setaria faberii
Condition Summary: POSTEMERGENCE, Rate 50 g/ha; 0 to 10 scale
Description: Seeds of barley (Hordeum vulgare), barnyardgrass (Echinochloa crus-galli), bedstraw (Galium aparine), blackgrass (Alopecurus myosuroides), […] […] Treated plants and controls were maintained in a greenhouse for twelve to sixteen days, after which all species were compared to controls and visually evaluated. […]
Known Plant response rating, Giant foxtail of a selection of molecules

[
  {
    "Molecule": "Fc1cc(Cl)c(OCc2ccccc2)cc1-c1nn2c(c1Cl)CCCC2",
    "Plant response rating, Giant foxtail": 3
  },
  {
    "Molecule": "CC(=O)c1cc(-c2nn3c(c2Cl)CCCC3)c(F)cc1Cl",
    "Plant response rating, Giant foxtail": 5
  },
  {
    "Molecule": "C#CCOc1cc(-c2nn3c(c2Br)CCCC3)c(F)cc1Cl",
    "Plant response rating, Giant foxtail": 4
  },
  {
    "Molecule": "CCC(C)Oc1cc(-c2nn3c(c2Cl)CCCC3)c(F)cc1Cl (stereo not drawn)",
    "Plant response rating, Giant foxtail": 6
  },
  {
    "Molecule": "CCOC(=O)COc1cc(-c2nn3c(c2Cl)CCCC3)c(Cl)cc1Cl",
    "Plant response rating, Giant foxtail": 5
  },
  {
    "Molecule": "CC(C)(C)C(=O)COc1cc(-c2nn3c(c2Cl)CCCC3)c(Cl)cc1Cl",
    "Plant response rating, Giant foxtail": 5
  },
  {
    "Molecule": "CCOC(=O)COc1cc(-c2nn3c(c2Cl)CCCC3)c(F)cc1Cl",
    "Plant response rating, Giant foxtail": 3
  },
  {
    "Molecule": "Clc1ccc(-c2nn3c(c2Cl)CCCC3)c(Cl)c1",
    "Plant response rating, Giant foxtail": 4
  },
  {
    "Molecule": "CCOCOc1cc(-c2nn3c(c2Cl)CCCC3)c(F)cc1Cl",
    "Plant response rating, Giant foxtail": 6
  }
]

---

Test system: lambsquarters
Assay Protocol: Test C preemergence/postemergence greenhouse plant response rating 0 to 100
Assay type: in vivo, Chenopodium album
Condition Summary: POSTEMERGENCE; Rate 4 g/ha
Quantity: Plant response rating (0 to 100), Lambsquarters

[
  {
    "Compound": "COC(=O)c1cc(-c2nn3c(c2Cl)CCCC3)c(F)cc1Cl",
    "Target Or System": "lambsquarters",
    "Reported": 90
  },
  {
    "Compound": "CC(C)Oc1cc(-c2nn3c(c2Br)CCCC3)c(F)cc1Cl",
    "Target Or System": "lambsquarters",
    "Reported": 60
  },
  {
    "Compound": "C#CC(C)Oc1cc(-c2nn3c(c2Br)CCCC3)c(F)cc1Cl (stereo not shown)",
    "Target Or System": "lambsquarters",
    "Reported": 30
  },
  {
    "Compound": "COc1cc(-c2nn3c(c2Cl)CCCC3)c(F)cc1Cl",
    "Target Or System": "lambsquarters",
    "Reported": 30
  }
]

---

System: cheatgrass
Assay Protocol: Test B preemergence/postemergence greenhouse plant response rating 0 to 10
Type: in vivo, Bromus secalinus
Condition Summary: POSTEMERGENCE, Rate 50 g/ha; 0 to 10 scale
Quantity: Plant response rating, Cheatgrass

[
  {
    "Compound": "Clc1cc(Cl)c(-c2nn3c(c2Cl)CCCC3)cc1OCC1CC1 [Compound 69]",
    "Target Or System": "cheatgrass",
    "Quantity": "Plant response rating, Cheatgrass",
    "Reported": 3
  },
  {
    "Compound": "Oc1cc(-c2nn3c(c2Cl)CCCC3)c(Cl)cc1Cl [Compound 68]",
    "Target Or System": "cheatgrass",
    "Quantity": "Plant response rating, Cheatgrass",
    "Reported": 2
  },
  {
    "Compound": "C#CC(C)Oc1cc(-c2nn3c(c2Cl)CCCC3)c(Cl)cc1Cl (centres unmarked) [Compound 74]",
    "Target Or System": "cheatgrass",
    "Quantity": "Plant response rating, Cheatgrass",
    "Reported": 6
  },
  {
    "Compound": "Fc1cc(Cl)c(-c2ccccc2)cc1-c1nn2c(c1Cl)CCCC2 [Compound 46]",
    "Target Or System": "cheatgrass",
    "Quantity": "Plant response rating, Cheatgrass",
    "Reported": 3
  },
  {
    "Compound": "C#CC(C)Oc1cc(-c2nn3c(c2Cl)CCCC3)c(F)cc1Cl (centres unmarked) [Compound 36]",
    "Target Or System": "cheatgrass",
    "Quantity": "Plant response rating, Cheatgrass",
    "Reported": 5
  }
]

---

Here the recorded Plant response rating, Barnyardgrass is given for each entry.
Tested on: barnyardgrass
Assay Protocol: Test B preemergence/postemergence greenhouse plant response rating 0 to 10
Format: in vivo, Echinochloa crus-galli
Condition Summary: Rate 200 g/ha, POSTEMERGENCE; 0 to 10 scale

[
  {
    "Smiles Entry": "COCCOc1cc(-c2nn3c(c2Cl)CCCC3)c(Cl)cc1Cl",
    "Target Or System": "barnyardgrass",
    "Plant response rating, Barnyardgrass": 7
  },
  {
    "Smiles Entry": "CC(C)Oc1cc(-c2nn3c(c2Cl)CCCC3)c(Cl)cc1Cl",
    "Target Or System": "barnyardgrass",
    "Plant response rating, Barnyardgrass": 7
  },
  {
    "Smiles Entry": "CON=C(C)c1cc(-c2nn3c(c2Cl)CCCC3)c(F)cc1Cl",
    "Target Or System": "barnyardgrass",
    "Plant response rating, Barnyardgrass": 7
  },
  {
    "Smiles Entry": "CCOC(=O)COc1cc(-c2nn3c(c2Cl)CCCC3)c(Cl)cc1Cl",
    "Target Or System": "barnyardgrass",
    "Plant response rating, Barnyardgrass": 9
  },
  {
    "Smiles Entry": "FCCCOc1cc(-c2nn3c(c2Cl)CCCC3)c(F)cc1Cl",
    "Target Or System": "barnyardgrass",
    "Plant response rating, Barnyardgrass": 7
  }
]

---

Quick list: Plant response rating, Ann Bluegrass per entry.
System: annual bluegrass
Assay Protocol: Test G preemergence/postemergence greenhouse plant response rating 0 to 100
Type: in vivo, Poa annua
Condition Summary: PREEMERGENCE, Rate 250 g/ha, 0 to 100 scale

[
  {
    "Compound": "CCCN1C(=O)COc2cc(F)c(-c3nn4c(c3Cl)CCCC4)cc21 [Compound 32]",
    "Target Or System": "annual bluegrass",
    "Plant response rating, Ann Bluegrass": 0
  },
  {
    "Compound": "C#CCN1C(=O)COc2cc(F)c(-c3nn4c(c3Cl)CCCC4)cc21 [Compound 34]",
    "Target Or System": "annual bluegrass",
    "Plant response rating, Ann Bluegrass": 50
  },
  {
    "Compound": "COc1cc(-c2nn3c(c2Cl)CCCC3)c(F)cc1Cl [Compound 29]",
    "Target Or System": "annual bluegrass",
    "Plant response rating, Ann Bluegrass": 0
  },
  {
    "Compound": "CC(C)Oc1cc(-c2nn3c(c2Cl)CCCC3)c(F)cc1Cl [Compound 21]",
    "Target Or System": "annual bluegrass",
    "Plant response rating, Ann Bluegrass": 0
  }
]
